system: 616215-338-R-J1-PDC complex spheroid growth, % test/control; assay: Anticancer human tumor 616215-338-R-J1-PDC patient-derived colon adenocarcinoma cell line growth inhibition [Asc]; conditions: second compound 3 µM; first compound 1 µM; active means viability on the fitted dose curve at most 10% of control; inactive means the rest;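 further: spheroids exposed to agents for seven days before readout; 100% = DMSO vehicle control viability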
Labels: label 1 = active, label 0 = inactive

>  <compound>
CNC(C)C(=O)NC1CN(S(=O)(=O)c2cccc(S(=O)(=O)N3CCC4CCC(C(=O)NC(c5ccccc5)c5ccccc5)N4C(=O)C(NC(=O)C(C)NC)C3)c2)CCC2CCC(C(=O)NC(c3ccccc3)c3ccccc3)N2C1=O (configuration not stated) + CCN1C(C(=O)NC23CCC(C(=O)O)(CC2)CC3)C(c2cccc(Cl)c2F)C2(C(=O)Nc3cc(Cl)ccc32)C12CCCCC2

>  <classification>
label 0

$$$$
>  <compound>
O=C(c1ccc(F)c(F)c1Nc1ccc(I)cc1F)N1CC(O)([C@@H]2CCCCN2)C1 + CCN1C(C(=O)NC23CCC(C(=O)O)(CC2)CC3)C(c2cccc(Cl)c2F)C2(C(=O)Nc3cc(Cl)ccc32)C12CCCCC2

>  <classification>
label 1

$$$$
